- System: HEK-293T
- procedure text: Multiplex assay against HEK293T
- Assay type: toxicity, cell-based
- experimental conditions: human, 12 h, 1 µM, compound concentration 1 uM, replicate 1
Each item that follows carries a reported Population Fragmented Nuclei (%).
measured endpoint: Population Fragmented Nuclei (%)

[
  {
    "molecule": "CCOc1ccn(-c2ccc(F)cc2)c(=O)c1C(=O)Nc1ccc(Oc2ccnc(N)c2Cl)c(F)c1 [BMS-777607]",
    "test value": 14
  },
  {
    "molecule": "Cc1c(Nc2ccc(S(=O)(=O)N3CCN(C)CC3)cc2F)nc2ccc(-c3cnn(C4CC4)c3)cn2c1=O",
    "test value": 13
  },
  {
    "molecule": "CC(C)c1cc(Nc2nc(N3CCC[C@H](N)C3)ncc2C(N)=O)cc(C(C)C)n1",
    "test value": 9
  },
  {
    "molecule": "CC[C@@H]1C(=O)N(C)c2cnc(Nc3ccc(C(=O)NC4CCN(C)CC4)cc3OC)nc2N1C1CCCC1 [BI-2536]",
    "test value": 15
  },
  {
    "molecule": "Cl.Cn1c2c(c3ccc(Cl)c(Cl)c31)C(C#N)C1(CCNCC1)NC2=O (stereo not drawn)",
    "test value": 13
  },
  {
    "molecule": "CCCCCNC(=N)N/N=C/c1c[nH]c2ccc(OC)cc12.O=C(O)/C=C\\C(=O)O [TEGASEROD MALEATE]",
    "test value": 20
  },
  {
    "molecule": "CC(Cc1ccc(O)c(O)c1)C(C)Cc1ccc(O)c(O)c1 (stereo not drawn) [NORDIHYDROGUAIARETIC ACID]",
    "test value": 12
  },
  {
    "molecule": "Cc1c(Nc2ccc(S(=O)(=O)N3CCN(C)CC3)cc2F)nc2ccc(Nc3cnn(C4CC4)c3)cn2c1=O",
    "test value": 13
  }
]

====

- System: U2OS
- procedure text: Multiplex assay against U2OS
- Format: toxicity, cell-based
- experimental conditions: human, 24 h, 10 µM, compound concentration 10 uM, replicate 2
Each item that follows carries a reported Population Normal (%).

[
  {
    "compound": "Cl.Cn1c2c(c3ccc(Cl)c(Cl)c31)C(C#N)C1(CCNCC1)NC2=O (stereo not given)",
    "Population Normal (%)": 69
  },
  {
    "compound": "Cc1c(P(=S)(c2ccccc2)c2ccccc2)n2ccccc2[n+]1C/C=C/c1ccccc1.[Br-]",
    "Population Normal (%)": 73
  },
  {
    "compound": "CC[C@@]1(O)C(=O)OCc2c1cc1n(c2=O)Cc2cc3ccccc3nc2-1 [CAMPTOTHECIN]",
    "Population Normal (%)": 89
  },
  {
    "compound": "c1ccc(-c2oc3ncnc(NC[C@@H]4CCCO4)c3c2-c2ccccc2)cc1",
    "Population Normal (%)": 90
  },
  {
    "compound": "CN1C(=O)[C@@H](NC(=O)c2cc3ccccc3[nH]2)N=C(c2ccccc2)c2ccccc21 [DEVAZEPIDE]",
    "Population Normal (%)": 92
  }
]

====

- Test system: U2OS
- procedure text: Incucyte cell viability with U2OS; further: filed as whole numbers so only -1 and 0 and 1 occur
- Format: toxicity, cell-based
- experimental conditions: human, 0 h, 10 µM, compound concentration 10 uM, replicate number 1, timepoint 0 hours
measured endpoint: Growth Rate

[
  {
    "compound": "CC(C)NCC(O)COc1cccc2ccccc12.Cl (stereo not drawn) [PROPRANOLOL HYDROCHLORIDE]",
    "test value": 0
  },
  {
    "compound": "C/C(=C/C=C/C(C)=C/C(=O)O)c1cc(C(C)(C)C)cc(C(C)(C)C)c1OCC(F)F",
    "test value": 0
  },
  {
    "compound": "CCCCC#Cc1nc(NC)c2ncn([C@@H]3O[C@H](CO)[C@@H](O)[C@H]3O)c2n1",
    "test value": 0
  },
  {
    "compound": "COc1ccccc1-c1cc(Nc2cccc(CS(N)(=O)=O)c2)ncn1",
    "test value": 0
  },
  {
    "compound": "c1ccc(-c2oc3ncnc(NC[C@@H]4CCCO4)c3c2-c2ccccc2)cc1",
    "test value": 1
  },
  {
    "compound": "C=CC(=O)Nc1cc(-n2c(=O)ccc3cnc4ccc(-c5ccc(NS(C)(=O)=O)cc5)cc4c32)ccc1C",
    "test value": 0
  },
  {
    "compound": "C[C@H]1C[C@H]2[C@@H]3CCC4=CC(=O)C=C[C@]4(C)[C@@]3(Cl)[C@@H](O)C[C@]2(C)[C@@]1(O)C(=O)CO [BECLOMETHASONE]",
    "test value": 0
  },
  {
    "compound": "Cc1c(F)cccc1NC(=O)Nc1ccc(Cl)c(S(=O)(=O)[C@H]2CCCNC2)c1O [DANIRIXIN]",
    "test value": 0
  },
  {
    "compound": "CC(C)c1cc(Nc2nc(N3CCC[C@H](N)C3)ncc2C(N)=O)cc(C(C)C)n1",
    "test value": 1
  },
  {
    "compound": "C/C(=N\\NC(=O)[C@@H]1C(=O)NC[C@H]1c1ccccc1)c1cccc(Br)c1",
    "test value": 0
  },
  {
    "compound": "CC(C)(O)c1cncc(-c2nc3ccc(F)cc3n2C2CC2)c1 [MSD-CYP11B2]",
    "test value": 0
  },
  {
    "compound": "CCOc1ccn(-c2ccc(F)cc2)c(=O)c1C(=O)Nc1ccc(Oc2ccnc(N)c2Cl)c(F)c1 [BMS-777607]",
    "test value": 1
  },
  {
    "compound": "CCCOc1ccn2c(C(C)=O)cc(-c3cccc(OC)c3)c2c1",
    "test value": 0
  },
  {
    "compound": "CN(CCOc1ccc(CC2SC(=O)NC2=O)cc1)c1ccccn1 (stereo not drawn) [ROSIGLITAZONE]",
    "test value": 0
  },
  {
    "compound": "Cc1cn2cc(CC(=O)N3CCC4(CC3)CN(Cc3ccc(-n5nccn5)cc3Cl)C4)nc2s1",
    "test value": 0
  },
  {
    "compound": "CC[C@@H]1CN(C(=O)NCC(F)(F)F)C[C@@H]1c1cnc2cnc3[nH]ccc3n12 [UPADACITINIB]",
    "test value": 0
  },
  {
    "compound": "CCOP(=O)(OCC)C(=Cc1cc(C(C)(C)C)c(O)c(C(C)(C)C)c1)P(=O)(OCC)OCC",
    "test value": 1
  },
  {
    "compound": "C[C@@H](NC(=O)Nc1cc2[nH]ncc2c(CO)n1)c1ccccc1 [ERKi]",
    "test value": 0
  }
]
